Molecular target: Mast/stem cell growth factor receptor Kit (Homo sapiens, UniProt P10721, V560G)
Sequence (P10721 26-976 V560G limits assumed): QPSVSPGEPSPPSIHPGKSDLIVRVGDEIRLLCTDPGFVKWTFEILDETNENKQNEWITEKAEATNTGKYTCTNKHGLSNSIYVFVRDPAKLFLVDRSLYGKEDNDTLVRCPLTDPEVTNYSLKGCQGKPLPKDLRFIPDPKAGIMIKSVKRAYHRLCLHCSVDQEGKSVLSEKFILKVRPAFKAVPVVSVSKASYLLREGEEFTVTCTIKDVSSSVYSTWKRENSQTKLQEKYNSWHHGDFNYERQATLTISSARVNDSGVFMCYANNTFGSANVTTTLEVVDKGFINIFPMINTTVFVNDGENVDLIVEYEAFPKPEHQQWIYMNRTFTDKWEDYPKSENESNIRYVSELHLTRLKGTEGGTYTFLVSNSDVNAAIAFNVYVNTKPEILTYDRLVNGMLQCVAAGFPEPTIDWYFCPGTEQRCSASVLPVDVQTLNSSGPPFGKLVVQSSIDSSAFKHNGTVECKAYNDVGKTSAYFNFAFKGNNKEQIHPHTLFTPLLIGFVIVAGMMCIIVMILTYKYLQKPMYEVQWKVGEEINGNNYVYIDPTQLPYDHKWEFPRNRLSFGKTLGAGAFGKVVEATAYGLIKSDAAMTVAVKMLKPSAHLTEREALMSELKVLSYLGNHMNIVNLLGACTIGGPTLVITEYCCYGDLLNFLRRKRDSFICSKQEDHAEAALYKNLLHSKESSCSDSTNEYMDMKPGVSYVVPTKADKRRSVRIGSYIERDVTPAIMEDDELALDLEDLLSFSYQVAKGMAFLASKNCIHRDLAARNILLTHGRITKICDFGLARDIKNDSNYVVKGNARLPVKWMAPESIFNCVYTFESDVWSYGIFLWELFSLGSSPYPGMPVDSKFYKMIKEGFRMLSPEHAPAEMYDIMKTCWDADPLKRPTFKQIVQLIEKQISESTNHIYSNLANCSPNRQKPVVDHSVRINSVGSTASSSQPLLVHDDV
Test: Inhibition of recombinant human C-Kit V560G mutant (544 to end residues) using poly(Glu, Tyr) 4:1 as substrate incubated 40 mins in presence of [gamma-33ATP] by radiometric scintillation counting analysis
pIC50: −log10 of the molar value.
metric: pIC50

Recorded pIC50 for "CN(C)c1ccc(C(=O)Nc2cccc(NC(=O)COc3ccc4c(=O)ccoc4c3)c2)cc1" , please?
< 5.00

====

Molecular target: Phosphatidylinositol 4-phosphate 3-kinase C2 domain-containing subunit alpha (Homo sapiens, UniProt O00443)
Sequence (O00443 whole entry, the tested form may be a part): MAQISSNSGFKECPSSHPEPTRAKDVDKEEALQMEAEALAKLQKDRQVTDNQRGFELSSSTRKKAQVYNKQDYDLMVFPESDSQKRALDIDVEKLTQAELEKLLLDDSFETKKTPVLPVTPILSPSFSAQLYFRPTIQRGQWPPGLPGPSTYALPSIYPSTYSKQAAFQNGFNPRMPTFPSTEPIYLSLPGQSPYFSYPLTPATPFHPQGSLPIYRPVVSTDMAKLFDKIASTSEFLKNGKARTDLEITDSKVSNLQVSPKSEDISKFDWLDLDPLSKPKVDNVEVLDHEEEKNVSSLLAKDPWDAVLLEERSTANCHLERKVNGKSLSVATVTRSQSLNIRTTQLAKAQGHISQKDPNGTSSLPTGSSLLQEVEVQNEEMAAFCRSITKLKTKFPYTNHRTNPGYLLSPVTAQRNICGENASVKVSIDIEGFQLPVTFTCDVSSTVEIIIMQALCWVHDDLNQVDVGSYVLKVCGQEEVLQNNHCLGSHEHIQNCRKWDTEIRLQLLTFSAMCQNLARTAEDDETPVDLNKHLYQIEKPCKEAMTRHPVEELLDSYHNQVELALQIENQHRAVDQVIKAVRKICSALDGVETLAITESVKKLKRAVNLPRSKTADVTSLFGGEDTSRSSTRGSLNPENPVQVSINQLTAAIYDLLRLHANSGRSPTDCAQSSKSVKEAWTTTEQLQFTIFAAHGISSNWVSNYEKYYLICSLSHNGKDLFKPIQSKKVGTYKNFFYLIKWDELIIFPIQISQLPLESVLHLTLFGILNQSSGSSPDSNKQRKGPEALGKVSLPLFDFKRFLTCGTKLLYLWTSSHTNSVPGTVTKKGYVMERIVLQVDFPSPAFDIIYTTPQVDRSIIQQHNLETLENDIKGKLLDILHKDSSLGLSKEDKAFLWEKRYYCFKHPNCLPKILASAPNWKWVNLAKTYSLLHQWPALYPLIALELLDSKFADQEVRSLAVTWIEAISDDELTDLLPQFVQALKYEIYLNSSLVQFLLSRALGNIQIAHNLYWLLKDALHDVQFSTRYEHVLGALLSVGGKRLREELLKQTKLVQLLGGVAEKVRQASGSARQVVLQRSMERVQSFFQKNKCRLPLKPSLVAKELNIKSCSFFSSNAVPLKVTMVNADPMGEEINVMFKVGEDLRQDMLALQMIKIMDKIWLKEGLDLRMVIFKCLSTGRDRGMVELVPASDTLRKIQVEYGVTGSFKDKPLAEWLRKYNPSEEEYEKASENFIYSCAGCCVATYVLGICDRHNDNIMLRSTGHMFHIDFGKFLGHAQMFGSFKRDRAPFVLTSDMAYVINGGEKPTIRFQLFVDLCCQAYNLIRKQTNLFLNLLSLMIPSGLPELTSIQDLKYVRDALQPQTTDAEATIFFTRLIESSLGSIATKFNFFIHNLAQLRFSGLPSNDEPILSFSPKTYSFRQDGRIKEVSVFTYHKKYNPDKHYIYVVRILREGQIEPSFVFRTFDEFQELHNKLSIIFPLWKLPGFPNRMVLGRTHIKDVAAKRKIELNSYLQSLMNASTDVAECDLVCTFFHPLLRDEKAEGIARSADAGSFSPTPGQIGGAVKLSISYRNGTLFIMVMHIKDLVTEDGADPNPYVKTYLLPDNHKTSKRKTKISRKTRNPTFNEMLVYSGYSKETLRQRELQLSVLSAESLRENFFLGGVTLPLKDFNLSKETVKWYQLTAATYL
Test: Inhibition of human PI3KC2
pIC50: −log10 of the molar value.
metric: pIC50

Recorded pIC50 for "CN(C)c1ccc(C(=O)Nc2cccc(NC(=O)COc3ccc4c(=O)ccoc4c3)c2)cc1" , please?
< 5.00

====

Target: Serine/threonine-protein kinase N2 (Homo sapiens, UniProt Q16513)
Assay: Inhibition of recombinant human PRK2 (501 to end residues) using AKRRRLSSLRA as substrate incubated for 40 mins in presence of [gamma33P]ATP by radiometric scintillation counting analysis
metric: IC50

Please tell me: IC50 of "CN(C)c1ccc(C(=O)Nc2cccc(NC(=O)COc3ccc4c(=O)ccoc4c3)c2)cc1" , system Serine/threonine-protein kinase N2 (Homo sapiens, UniProt Q16513)?
> 10 µM

====

Target: Ephrin type-A receptor 7 (Homo sapiens, UniProt Q15375)
Test: Inhibition of recombinant human EphA7 (613 to 909 residues) using KTFCGTPEYLAPE as substrate measured after 40 mins in presence of [gamma33ATP] by radiometric scintillation counting analysis
metric: IC50

Recorded IC50 for "CN(C)c1ccc(C(=O)Nc2cccc(NC(=O)COc3ccc4c(=O)ccoc4c3)c2)cc1" , please?
> 10 µM

====

Biological target: Serine/threonine-protein kinase STK11 (Homo sapiens)
Sequence (Q15831 whole entry): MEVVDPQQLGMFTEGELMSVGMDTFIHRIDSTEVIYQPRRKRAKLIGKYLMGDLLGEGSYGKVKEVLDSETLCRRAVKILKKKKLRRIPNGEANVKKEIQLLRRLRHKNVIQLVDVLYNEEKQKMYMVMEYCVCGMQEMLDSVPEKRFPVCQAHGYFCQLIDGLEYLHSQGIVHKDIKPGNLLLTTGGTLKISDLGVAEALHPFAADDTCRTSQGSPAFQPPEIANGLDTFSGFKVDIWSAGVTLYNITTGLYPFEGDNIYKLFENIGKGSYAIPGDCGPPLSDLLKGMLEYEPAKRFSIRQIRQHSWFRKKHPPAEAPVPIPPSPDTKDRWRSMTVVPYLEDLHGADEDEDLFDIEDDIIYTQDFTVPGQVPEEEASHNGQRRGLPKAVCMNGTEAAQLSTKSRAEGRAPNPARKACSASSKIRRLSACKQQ
Test: Inhibition of recombinant full length human LKB1 using LSNLYHQGKFLQT as substrate after 40 mins in presence of [gamma-33ATP] by radiometric scintillation counting analysis
metric: IC50

Please tell me: IC50 of "CN(C)c1ccc(C(=O)Nc2cccc(NC(=O)COc3ccc4c(=O)ccoc4c3)c2)cc1" , system Serine/threonine-protein kinase STK11 (Homo sapiens)?
> 10 µM

====

Target: UniProt:Q13464
Sequence (Q13464 whole entry, the tested form may be a part): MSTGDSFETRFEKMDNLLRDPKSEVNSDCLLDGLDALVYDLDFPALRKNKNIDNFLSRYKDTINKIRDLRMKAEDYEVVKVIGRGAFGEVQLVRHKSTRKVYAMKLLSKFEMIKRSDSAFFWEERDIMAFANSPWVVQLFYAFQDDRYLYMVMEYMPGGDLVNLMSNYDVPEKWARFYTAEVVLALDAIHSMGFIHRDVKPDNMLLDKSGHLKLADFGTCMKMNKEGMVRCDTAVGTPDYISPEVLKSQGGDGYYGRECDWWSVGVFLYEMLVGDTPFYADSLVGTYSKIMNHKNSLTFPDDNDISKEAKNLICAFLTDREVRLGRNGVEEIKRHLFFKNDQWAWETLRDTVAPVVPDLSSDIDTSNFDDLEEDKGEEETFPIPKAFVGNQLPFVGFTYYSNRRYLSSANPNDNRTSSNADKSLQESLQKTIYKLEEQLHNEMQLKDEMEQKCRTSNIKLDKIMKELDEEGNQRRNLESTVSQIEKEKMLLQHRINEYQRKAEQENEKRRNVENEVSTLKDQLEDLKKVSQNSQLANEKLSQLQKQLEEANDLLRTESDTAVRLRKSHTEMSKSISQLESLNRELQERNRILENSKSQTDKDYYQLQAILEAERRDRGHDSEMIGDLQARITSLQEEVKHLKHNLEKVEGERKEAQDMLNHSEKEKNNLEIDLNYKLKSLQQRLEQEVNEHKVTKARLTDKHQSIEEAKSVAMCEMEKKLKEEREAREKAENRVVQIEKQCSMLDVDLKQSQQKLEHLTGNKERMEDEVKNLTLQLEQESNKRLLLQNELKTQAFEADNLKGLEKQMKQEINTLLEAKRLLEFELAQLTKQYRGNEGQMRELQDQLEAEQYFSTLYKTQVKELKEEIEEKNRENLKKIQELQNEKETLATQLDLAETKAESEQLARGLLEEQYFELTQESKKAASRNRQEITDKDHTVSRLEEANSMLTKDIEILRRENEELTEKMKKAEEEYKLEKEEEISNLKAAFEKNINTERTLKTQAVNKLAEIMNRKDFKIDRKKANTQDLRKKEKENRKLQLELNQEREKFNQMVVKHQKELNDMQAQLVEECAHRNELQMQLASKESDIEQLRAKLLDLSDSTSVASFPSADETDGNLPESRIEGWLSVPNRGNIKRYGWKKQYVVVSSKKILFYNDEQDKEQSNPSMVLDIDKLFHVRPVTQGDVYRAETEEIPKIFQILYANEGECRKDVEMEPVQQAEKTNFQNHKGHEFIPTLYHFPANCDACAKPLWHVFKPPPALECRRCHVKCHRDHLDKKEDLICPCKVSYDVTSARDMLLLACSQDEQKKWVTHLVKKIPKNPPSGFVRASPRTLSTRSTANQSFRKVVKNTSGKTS
Experiment: Inhibition of recombinant human ROCK1 (17 to 535 residues) using […] as substrate incubated for 40 mins in presence of [gamma-33P]ATP and 10 uM ATP by radiometric scintillation counting analysis
metric: IC50 (µM)
Numbers only, in µM.

Some solved cases for reference:
| chemicalStructure | IC50, µM |
| --- | --- |
| Cc1cc(C(=O)Nc2cccc(NC(=O)COc3ccc4c(=O)ccoc4c3)c2)no1 | 0.068 |
| CN(C)c1ccc(C(=O)Nc2cccc(NS(=O)(=O)COc3ccc4c(=O)ccoc4c3)c2)cc1 | 0.117 |
| Cc1ccc(NC(=O)COc2ccc3c(=O)ccoc3c2)cc1NC(=O)c1ccc(N(C)C)cc1 | 1.04 |
| CCCc1ccc(C(=O)Nc2cccc(NC(=O)COc3ccc4c(=O)ccoc4c3)c2)cc1 | 0.143 |
| O=C(COc1ccc2c(=O)ccoc2c1)Nc1cccc(NC(=O)c2cnc(C(F)(F)F)s2)c1 | 0.16 |

Provide IC50 values for the following items, in order.
1. CCCC(=O)Nc1cccc(NC(=O)COc2ccc3c(=O)ccoc3c2)c1
2. Cc1cc(NC(=O)COc2ccc3c(=O)ccoc3c2)cc(NC(=O)c2ccc(N(C)C)cc2)c1C
3. CCOc1ccc(C(=O)Nc2cccc(NC(=O)COc3ccc4c(=O)ccoc4c3)c2)cc1
4. O=C(COc1ccc2c(=O)ccoc2c1)Nc1cccc(NC(=O)c2ccc(C(=O)O)cc2)c1

1. 1.43
2. 3.95
3. 0.017
4. 6.89
